molecular target: Transporter (Rattus norvegicus, UniProt Q63380)
Sequence (Q63380 whole entry): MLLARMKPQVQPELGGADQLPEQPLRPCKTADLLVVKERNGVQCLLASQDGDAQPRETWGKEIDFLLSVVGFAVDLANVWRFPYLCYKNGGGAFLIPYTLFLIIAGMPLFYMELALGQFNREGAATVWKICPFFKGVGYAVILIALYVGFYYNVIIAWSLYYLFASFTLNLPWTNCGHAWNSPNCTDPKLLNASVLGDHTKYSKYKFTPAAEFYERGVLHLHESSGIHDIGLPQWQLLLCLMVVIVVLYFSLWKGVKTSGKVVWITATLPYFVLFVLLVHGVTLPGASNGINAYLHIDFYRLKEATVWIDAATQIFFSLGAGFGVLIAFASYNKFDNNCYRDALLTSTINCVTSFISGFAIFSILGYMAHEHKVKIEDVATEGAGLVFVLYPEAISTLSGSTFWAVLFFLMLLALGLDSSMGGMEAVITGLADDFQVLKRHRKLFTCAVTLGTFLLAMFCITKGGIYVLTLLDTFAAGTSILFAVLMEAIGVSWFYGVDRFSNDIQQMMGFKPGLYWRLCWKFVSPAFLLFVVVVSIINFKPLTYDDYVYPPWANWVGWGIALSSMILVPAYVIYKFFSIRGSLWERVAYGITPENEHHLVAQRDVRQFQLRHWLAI
recorded.endpoint: log10(Ki) (log10 of the value in nM)

{"line.notation": "CNCC[C@@H](c1cccs1)c1cccc2[nH]ccc12", "target.desc": "Transporter (Rattus norvegicus, UniProt Q63380)", "log10(Ki)": 2.01}
{"line.notation": "CNCC[C@@H](c1ccc(Cl)c(Cl)c1)c1cccc2[nH]ccc12", "target.desc": "Transporter (Rattus norvegicus, UniProt Q63380)", "log10(Ki)": 1.55}
{"line.notation": "CNCC[C@H](c1cccs1)c1cccc2[nH]ccc12", "target.desc": "Transporter (Rattus norvegicus, UniProt Q63380)", "log10(Ki)": 1.14}
{"line.notation": "CNCC[C@@H](c1ccc(Cl)c(Cl)c1)c1cccc2ccccc12", "target.desc": "Transporter (Rattus norvegicus, UniProt Q63380)", "log10(Ki)": 3.21}
{"line.notation": "CNCCC[C@H](c1cccs1)c1cccc2[nH]ccc12", "target.desc": "Transporter (Rattus norvegicus, UniProt Q63380)", "log10(Ki)": 0.95}
{"line.notation": "CNCCC[C@H](c1ccc(Cl)c(Cl)c1)c1cccc2ccccc12", "target.desc": "Transporter (Rattus norvegicus, UniProt Q63380)", "log10(Ki)": 3.39}
